B1: EHEE_rd4_0086 (parent)
chain: EIHIRTNGEEQARKVYKMLAKRNYDVKIEQHNGQWVVTAS

variants of: B1; test: folding stability dG (cDNA display proteolysis); higher = more stable; conditions: PBS, room temperature
measurement-name: folding stability dG (kcal/mol)
Value expressed in kcal/mol; do not type the unit.

These solved cases illustrate the format of a correct answer.
INSERT INTO assay_data (variant_name, measurement_name, experimental_value) VALUES
  ('T38R', 'folding stability dG', 1.78),
  ('N23E', 'folding stability dG', 1.12),
  ('K21M', 'folding stability dG', 2.15);

Noted for `G8K` : its folding stability dG reads 2.1

Noted for `G8W` : its folding stability dG reads 2.02

Noted for `Q11T` : its folding stability dG reads 1.59

Noted for `N32P` : its folding stability dG reads 0.291

Noted for `A12Q` : its folding stability dG reads -0.947

Noted for `Y16M` : its folding stability dG reads 2.15

Data origin: the MegaScale stability set (Tsuboyama et al. 2023)
